Listed here are molecules together with their documented pIC50.
# Target Of Assay: human Aurora A (Homo sapiens, UniProt O14965)
# Construct: Histidine tag (N); host or cells: Sf9 insect cells (baculovirus)
# Experiment: Aurora A kinase assay (DELFIA enzyme inhibition)
# Assay type: biochemical
# Experimental Setup: read-out: Aurora A IC50
pIC50: −log10 of the molar value.

Reference set, count: 7
| Molecule | pIC50 |
| --- | --- |
| COc1ccc(-c2nc(-c3cn(C)c4ccccc34)[nH]c2C(N)=O)cc1 | > 4.00 |
| NC(=O)c1nc(-c2c(F)cccc2F)oc1Nc1ccc(C(=O)N2CCNCC2)cc1 | > 5.00 |
| NC(=O)c1nc(-c2c(F)cccc2F)oc1Nc1ccc(C(=O)N[C@@H]2CCCNC2)cc1 | > 5.00 |
| CS(=O)(=O)c1ccc(Nc2oc(-c3cccc4[nH]ncc34)nc2C(N)=O)cc1 | > 5.00 |
| NC(=O)c1nc(-c2c(F)cccc2F)oc1Nc1ccc2c(c1)OCO2 | > 4.00 |
| NCCCNC(=O)c1ccc(Nc2oc(-c3c(F)cccc3F)nc2C(N)=O)cc1 | > 5.00 |
| NC(=O)c1nc(-c2cccc3[nH]ccc23)oc1-c1ccc(N2CCNCC2)cc1 | > 5.00 |

Turning to the following molecule.
pIC50 for human Aurora A (Homo sapiens, UniProt O14965) with input CC(C)(C)OC(=O)NCC1CN(C(=O)c2ccc(Nc3oc(-c4c(F)cccc4F)nc3C(N)=O)cc2)CCO1 (centres unmarked) equals > 5.00

* * *

# Target Of Assay: human Aurora A (Homo sapiens, UniProt O14965)
# Construct: Histidine tag (N); host or cells: Sf9 insect cells (baculovirus)
# Sequence (O14965 1-403): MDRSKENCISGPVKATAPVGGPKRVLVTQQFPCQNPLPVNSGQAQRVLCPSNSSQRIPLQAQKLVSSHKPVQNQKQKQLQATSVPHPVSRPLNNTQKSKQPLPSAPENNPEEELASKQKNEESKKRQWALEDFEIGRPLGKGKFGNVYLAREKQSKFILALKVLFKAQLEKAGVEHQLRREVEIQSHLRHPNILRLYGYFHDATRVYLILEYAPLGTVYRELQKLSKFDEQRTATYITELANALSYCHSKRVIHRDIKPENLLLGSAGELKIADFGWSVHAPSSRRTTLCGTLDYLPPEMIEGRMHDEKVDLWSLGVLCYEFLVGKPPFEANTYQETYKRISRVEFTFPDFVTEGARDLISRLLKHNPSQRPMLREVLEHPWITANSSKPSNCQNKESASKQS
# Experiment: Aurora A kinase assay (DELFIA enzyme inhibition)
# Format: biochemical
# Experimental Setup: read-out: Aurora A IC50
As shown below, each of these molecules has a reported IC50 value.

| Molecule | IC50 |
| --- | --- |
| COc1ccc(-c2oc(-c3cc(C(F)(F)F)ccc3F)nc2C(N)=O)cc1 | < 100 µM |
| CN1CCN(c2ccc(Nc3oc(-c4c(F)cccc4F)nc3C(N)=O)cn2)CC1 | < 10 µM |
| COc1ccc(-c2nc(-c3c[nH]c4ccc(OC)cc34)[nH]c2C(N)=O)cc1 | < 100 µM |
| NC(=O)c1nc(Nc2ccnn2Cc2ccccc2)oc1-c1ccc(N2CCNCC2)cc1 | < 10 µM |
| Cc1cccc(C)c1-c1nc(C(N)=O)c(Nc2ccc(N3CCNCC3)cc2)o1 | < 10 µM |
| CC(=O)Nc1ccc(-c2oc(-c3c(F)cccc3F)nc2C(N)=O)cc1 | < 100 µM |
| CN1CCN(c2ccc(-c3oc(-c4c(F)cccc4F)nc3C(N)=O)cc2)CC1 | < 10 µM |
| NC(=O)c1nc(-c2c(F)cccc2F)oc1Nc1ccc(C(=O)NCC2CCNCC2)cc1 | < 10 µM |

Recorded result, NC(=O)c1nc(-c2c(F)cccc2F)oc1-c1cccnc1 , IC50: < 100 µM

* * *

Reported IC50 values for a set of molecules
# Target Of Assay: human FLT3 (Homo sapiens)
# Construct: a construct expressing the human FLT3 (564-993) with an amino terminal GST tag; host or cells: Sf9 insect cells (baculovirus)
# Experiment: FLT3 kinase assay (DELFIA enzyme inhibition)
# Type: biochemical

| Molecule | IC50 |
| --- | --- |
| CN(C)c1ccc(-c2oc(-c3c(F)cccc3F)nc2C(N)=O)cn1 | < 100 µM |

// field: IC50; key: COc1ccc(-c2oc(Nc3ccccc3OC)nc2C(N)=O)cc1 ; value = < 10 µM

The recorded IC50 for NC(=O)c1nc(-c2c(F)cccc2Cl)oc1-c1ccc(OCCN2CCCCC2)cc1 is < 10 µM

For this molecule ( NC(=O)c1nc(-c2c[nH]c3ccccc23)oc1-c1cccs1 ), measured IC50 is < 100 µM

Lab book: IC50 of NC(=O)c1nc(-c2c(F)cccc2F)oc1-c1ccc(OCCN2CCOCC2)cc1 noted as < 10 µM

Value of IC50 reported for the molecule NC(=O)c1nc(-c2c(F)cccc2F)oc1-c1ccc(OCCCN2CCOCC2)cc1 is < 10 µM

Entry under test: NC(=O)c1nc(-c2c(F)cccc2F)oc1Nc1ccc(C(=O)O)cc1 . Its IC50 was < 10 µM

IC50 in this record for CN1CCN(CCOc2ccc(-c3oc(-c4c(F)cccc4N4CCN(C)CC4)nc3C(N)=O)cc2)CC1 : < 100 µM

Input NC(=O)c1nc(-c2c(F)cccc2F)oc1Nc1ccc(S(N)(=O)=O)cc1 . Output IC50: < 10 µM

Consider CNS(=O)(=O)c1ccc(Nc2oc(-c3c(F)cccc3F)nc2C(N)=O)cc1 . Its measured IC50 is < 10 µM

Entry NC(=O)c1nc(-c2c(F)cccc2F)oc1Nc1ccc(-c2cc(CO)on2)cc1 — recorded IC50 = < 100 µM

* * *

# Target Of Assay: human FLT3 (Homo sapiens, UniProt P36888)
# Construct: a construct expressing the human FLT3 (564-993) with an amino terminal GST tag
# Sequence (P36888 564-993): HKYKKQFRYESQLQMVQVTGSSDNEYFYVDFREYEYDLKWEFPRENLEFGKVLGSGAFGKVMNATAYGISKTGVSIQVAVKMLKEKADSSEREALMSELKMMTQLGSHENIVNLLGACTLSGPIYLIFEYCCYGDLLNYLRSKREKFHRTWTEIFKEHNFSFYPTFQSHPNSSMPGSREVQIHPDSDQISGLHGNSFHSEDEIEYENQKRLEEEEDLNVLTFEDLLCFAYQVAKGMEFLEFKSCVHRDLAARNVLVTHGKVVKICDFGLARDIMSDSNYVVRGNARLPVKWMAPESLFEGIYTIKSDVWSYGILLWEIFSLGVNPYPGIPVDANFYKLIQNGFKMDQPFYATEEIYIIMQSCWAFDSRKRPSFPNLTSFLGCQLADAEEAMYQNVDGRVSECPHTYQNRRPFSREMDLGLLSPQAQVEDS
# Experiment: FLT3 kinase assay (DELFIA enzyme inhibition)
Property Label: IC50

| Molecule | Observed Value |
| --- | --- |
| COc1ccc(-c2oc(-c3ccc(S(C)(=O)=O)cc3)nc2C(N)=O)cc1 | < 100 µM |
| CN1CCN(c2ccc(-c3oc(-c4c(F)cccc4F)nc3C(N)=O)cn2)CC1 | < 10 µM |
| CS(=O)(=O)c1ccc(Nc2oc(-c3cccc4[nH]ncc34)nc2C(N)=O)cc1 | < 10 µM |
| CN1CCN(C(=O)c2ccc(Nc3oc(-c4c(F)cccc4F)nc3C(N)=O)cc2)[C@@H](CO)C1 | < 10 µM |
| CN1CCN(Cc2ccc(-c3oc(-c4c(F)cccc4F)nc3C(N)=O)cc2)CC1 | < 100 µM |
| NC(=O)c1nc(-c2c(F)cccc2F)oc1Nc1ccc(C(=O)N2CCCCC2CO)cc1 (centres unmarked) | < 10 µM |

IC50 for CN1CCN(C(=O)c2ccc(Nc3oc(-c4c(F)cccc4F)nc3C(N)=O)cc2)CC1 is < 10 µM

Entry NC(=O)c1nc(-c2cccc3[nH]ncc23)oc1-c1ccc(N2CCNCC2)cc1 , IC50 reported as < 10 µM

Kindly note the recorded IC50 for NC(=O)c1nc(-c2c(F)cccc2F)oc1-c1ccc(COCCN2CCOCC2)cc1 , which is < 100 µM

# IC50 (molecule: NC(=O)c1nc(-c2ccccc2F)oc1Nc1ccc(N2CCOCC2)cc1 ) is < 10 µM

IC50 reading for CC(=O)N1CCN(c2ccc(-c3oc(-c4c(F)cccc4F)nc3C(N)=O)cc2)CC1 : < 10 µM

* * *

# Target Of Assay: human Aurora A (Homo sapiens)
# Construct: Histidine tag (N); host or cells: Sf9 insect cells (baculovirus)
# Experiment: Aurora A kinase assay (DELFIA enzyme inhibition)
# Format: biochemical
# Experimental Setup: read-out: Aurora A IC50
The entries below are paired with their reported IC50.

Sample records with IC50:
| Structure Notation | Target Of Assay | IC50 |
| --- | --- | --- |
| NC(=O)c1ccc(-c2oc(-c3c(F)cccc3F)nc2C(N)=O)cc1 | human Aurora A (Homo sapiens) | < 10 µM |
| CNC(=O)N1CCN(c2ccc(Nc3oc(-c4c(F)cccc4F)nc3C(N)=O)cc2)CC1 | human Aurora A (Homo sapiens) | < 10 µM |
| COc1ccccc1Nc1oc(-c2c(F)cccc2F)nc1C(N)=O | human Aurora A (Homo sapiens) | < 100 µM |
| COc1ccc(-c2nc(-c3ccccc3OC)[nH]c2C(N)=O)cc1 | human Aurora A (Homo sapiens) | < 100 µM |

So for NC(=O)c1nc(-c2c(F)cccc2F)oc1Nc1ccc(N2CCC(N)CC2)cc1 , the logged IC50 turned out to be < 10 µM

Form: compound = NC(=O)c1nc(-c2c(F)cccc2F)oc1-c1ccc(OCCN2CCOCC2)cc1 ; IC50 = < 10 µM

Note to self: IC50 recorded for NC(=O)c1nc(-c2c(F)cccc2F)oc1-c1ccc(OCCN2CCN(CCO)CC2)cc1 was < 10 µM

Reported IC50 ( COc1ccc(-c2oc(-c3ccc(C(F)(F)F)cc3F)nc2C(N)=O)cc1 ) = < 100 µM
